The reported numbers originate from PubChem BioAssay AID720519.

assay: qHTS for Inhibitors of Cell Surface uPA Generation: Confirmatory Assay for Cherry-picked Compounds; settings: cell surface uPA activity generation, qHTS confirmation; series mostly up to 115 µM
Results filed as inconclusive are left out. The source made the active and inactive calls. Calls follow the shape of the dose curve; as a rule, active = well fitted activation curve with a large enough effect; inconclusive = small, poorly fitted or top-dose-only effect; inactive = flat fitted curve, though single readings scatter.
In this exercise, the only acceptable responses are yes (1) = active, no (0) = inactive

Tell me the recorded outcome of this test for Cc1ccc2oc(=O)c3cnn(CC(=O)Nc4ccccc4N4CCN(C)CC4)c3c2c1 .
yes (1)

// outcome(item) with item = CC1CN(C(=O)CCC(=O)NCc2ccccc2)c2ccccc2S1 (stereo unspecified)
no (0)

Could you check what this test reported for O=C(NNC(=O)c1cccc(-n2cccc2)c1)c1ccc(F)cc1 ?
no (0)

Which result was noted for this compound in the test: CC(NC(=O)NC1CCCCC1)C(c1cccs1)N1CCN(C)CC1 (stereo unspecified)
no (0)

Just curious, what result did Cc1nc(C(=O)N2CCC(n3nccc3NC(=O)Nc3ccccc3Cl)CC2)cs1 get here?
no (0)

Test call for this compound, please: CCn1nc(C)c(CNC(=O)C2CCC(=O)N(CCc3ccc(OC)cc3)C2)c1C (stereo unspecified)
no (0)

How did this test come out for O=C(NCCS(=O)(=O)N1CCC2(CC1)OCCO2)c1ccc(F)cc1 ?
no (0)

Tell me the assay call for CCC(C)Nc1cc(C)nc2ncnn12 (stereo unspecified) please.
no (0)

Answer briefly: the call reported for CC1(CC(=O)N/N=C/c2cc(Br)c(O)cc2O)OCCO1 in this assay.
no (0)

Hi, sorry to bother you, what did the test record for CCN(CC)C(=O)Cn1cc(/C=C(\C#N)C(=O)NC2CC2)c2ccccc21 ?
no (0)

How was O=C(CCS(=O)(=O)c1ccc2c(c1)NC(=O)CS2)NCc1cccs1 classified in this test?
no (0)

----------
test: qHTS for Inhibitors of Cell Surface uPA Generation: Confirmatory Assay for Cherry-picked Compounds; settings: cell surface uPA activity generation, qHTS confirmation; series mostly up to 115 µM
Inconclusive results are not listed. The source made the active and inactive calls. The call rests on the fitted dose curve; in most records, active means well fitted activation curve with a large enough effect; inconclusive means small, poorly fitted or top-dose-only effect; inactive means flat fitted curve, though single readings scatter.
Permitted responses: active, inactive

Any idea what this test logged for CCOC(=O)CN1C(=O)N[C@@H](c2ccco2)C(C(=O)OC)=C1C ?
inactive

Recorded call for CC[C@]1(C(=O)OC)[C@H]2C(=O)N(C)C(=O)[C@H]2[C@H]2CN(C)C(=NC3CCCCC3)N21 ?
inactive

Which result was noted for this molecule in the test: Cc1ccc(C)c(NC(=O)CCN2CCN(c3ccccc3F)CC2)c1
inactive

Returns: the outcome recorded for CN(CCC#N)C(=S)Nc1ccc(Oc2ccccc2)cc1 in this assay.
inactive

Tell me the assay call for Cn1c(SCC(=O)NNC(=O)c2ccc(Br)cc2)nnc1-c1cccnc1 please.
inactive

Tell me the assay call for O=C(c1cc([N+](=O)[O-])cc([N+](=O)[O-])c1)N(c1ccccn1)c1ccccn1 please.
inactive

Would you mind telling me which call this test gave CC(NC(=O)C1CCC(C(=O)NC(C)c2ccccc2)CC1)c1ccccc1 (stereo not drawn) ?
inactive

Per the assay record, what outcome was assigned to N#CCC(=O)N/N=C/c1ccc(OCC(=O)Nc2ccc(F)cc2)cc1 ?
inactive

Assay outcome for CCCNC(=O)COc1coc(CN2CCN(c3ccccc3OC)CC2)cc1=O : what was it?
inactive

I'd appreciate the recorded outcome for Cc1cc(NC(=O)COc2cccc([N+](=O)[O-])c2)no1 from this test.
inactive

Hello, I am checking results. What call was entered for CCOC(=O)C1CCN(C(=O)COC(=O)c2c(C)c(CC)nc3ccccc23)CC1 ?
inactive

Per the records of this test, what outcome belongs to Cc1cc(C)c(NC(=O)Cn2nnc(C(=O)NCc3ccc4c(c3)OCO4)c2N)c(C)c1 ?
inactive

Please let me know the test result on file for COc1cccc(C(=O)Cn2c(NCCCO)nc3ccccc32)c1 .
inactive

Any idea what this test logged for COc1ccc(C(=O)c2sc(Nc3ccccc3)nc2N)cc1 ?
inactive

Identify the outcome logged in this assay for the molecule shown: C=CCN1C=C2C(=O)C(C)(OC(=O)c3cnc4ccccc4n3)C(=O)C=C2C=C1/C=C/COC (stereo not drawn)
inactive

For this molecule, state the assay outcome: O=C1CCCC/C1=C\Nc1ccc(S(=O)(=O)Nc2cnc3ccccc3n2)cc1
inactive

Please share the test call associated with CCOc1ccccc1N(CC(=O)Nc1ccc(OC)cc1)S(=O)(=O)c1ccccc1 .
inactive

Tell me the assay call for Cc1cc(-c2ccccc2)nc(N/N=C/c2ccc(N(C)C)cc2)n1 please.
inactive

# outcome recorded in this test, key = Cc1oc(-c2ccccc2F)nc1CS(=O)CC(=O)NCc1ccc(F)cc1 (stereo not drawn)
inactive

Name the outcome recorded for O=C(O)COc1ccccc1/C=N/NC(=O)CNC(=O)c1ccco1 in the assay.
inactive

Could you kindly confirm the outcome this assay logged for Cc1ccc(N=C2SCCCN2C(=O)c2cccc(N3C(=O)CCC3=O)c2)cc1Cl ?
inactive

Field: outcome | Entry: O=C(O)CSc1nnc(COc2ccccc2)n1-c1ccccc1
inactive

Recorded call for COc1cc2c(OC(C)=O)c3c(c(-c4ccc5c(c4)OCO5)c2cc1OC)C(=O)OC3 ?
active

How did this test come out for COc1ccc(C(=O)N2CCN(c3ccc(C(C)=O)cc3)CC2)cc1S(=O)(=O)N1CCCC1 ?
inactive

Could you check what this test reported for Cc1ccc(CN2CCN(Cc3cc4ccccc4o3)CC2CCO)cc1 (stereo not drawn) ?
inactive

Field: outcome | Entry: Cc1cccc(NC(=O)C2CCCN(S(=O)(=O)c3ccc4[nH]c(=O)ccc4c3)C2)c1 (stereo not drawn)
inactive

Recorded call for CN1CC[C@]23c4ccccc4N[C@H]1[C@]21CCN(C)[C@H]3Nc2ccccc21 ?
inactive

Hi, sorry to bother you, what did the test record for CCC1(CC)NC(=O)N(CC(=O)OCC(=O)c2cc(C)c(C)cc2C)C1=O ?
inactive

What was the test verdict on CC1(C)S[C@@H]2[C@H](NC(=O)C(C(=O)O)c3ccccc3)C(=O)N2[C@H]1C(=O)O (stereo partly drawn) ?
inactive

I would be grateful if you could indicate the recorded call for C[n+]1c2cc(N)ccc2cc2ccc(N)cc21 .
inactive

Kindly provide the recorded test outcome for the following molecule: CN(c1ccccc1)S(=O)(=O)c1ccc(C(=O)Nc2nnc(C3CC3)o2)cc1
inactive

For this molecule, state the assay outcome: CCCC1=NN(C(=O)Cc2ccc(OC)cc2)C(O)(C(F)(F)F)C1 (stereo not drawn)
inactive

Query: recorded result category for O=C1CCCc2ccccc2N1Cc1ccc(F)cc1 in this test
inactive

Hey, what did the test say about COc1ccc(NC(=O)CN2C(=O)CSc3ncccc32)cc1 ?
inactive

Identify the outcome logged in this assay for the molecule shown: CCC(=O)Nc1nc(-c2cc([N+](=O)[O-])cs2)cs1
inactive

What was the test verdict on CCS(=O)c1scc(-c2ccc(Cl)cc2)c1C#N (stereo not drawn) ?
inactive

Answer briefly: the call reported for O=C(CSc1ccc([N+](=O)[O-])cn1)Nc1nccs1 in this assay.
inactive

Hello, I am checking results. What call was entered for Cc1cccc(N2CCN(Cc3ccc(Br)o3)CC2)c1C ?
inactive

Recorded test call requested for CCc1nnc(NC(=O)CSc2nnnn2-c2cccc(C(C)=O)c2)s1
inactive

Hi, sorry to bother you, what did the test record for O=C(c1ccco1)N1CCN(c2ncccn2)CC1 ?
inactive

Identify the outcome logged in this assay for the molecule shown: CCOC(=O)N1CCN(c2c(NCCCN3CCCCCC3)c(=O)c2=O)CC1
inactive

Called result for Cc1cc(C)cc(NC(=O)COC(=O)CCn2c(C)csc2=O)c1
inactive

Hello, I am checking results. What call was entered for CC1CC(=O)Nc2ccccc2N1C(=O)Cn1cnc2ccc(Br)cc2c1=O (stereo not drawn) ?
inactive

----------
assay: qHTS for Inhibitors of Cell Surface uPA Generation: Confirmatory Assay for Cherry-picked Compounds; details: cell surface uPA activity generation, qHTS confirmation; series mostly up to 115 µM
Records with an inconclusive call do not appear. Active and inactive are the calls of the source. Calls follow the shape of the dose curve; as a rule, active = well fitted activation curve with a large enough effect; inconclusive = small, poorly fitted or top-dose-only effect; inactive = flat fitted curve, though single readings scatter.
PROPERTY LABEL: outcome

Illustrative cases are given below, each with its answer.
COMPOUND: CCCCN(CC)CCNC(=O)c1cc2cc3ccc(Cl)cc3nc2o1
VALUE MEASURED: inactive
//
COMPOUND: CCSC1=NCCN1S(=O)(=O)c1ccc(Cl)cc1
VALUE MEASURED: inactive
//
COMPOUND: CCOC(=O)c1c(C)oc2ccc(OC(=O)COc3c(F)c(F)c(F)c(F)c3F)cc12
VALUE MEASURED: inactive
//
COMPOUND: COc1cccc(C2CC(c3ccc(C)cc3)n3ncnc3N2)c1 (stereo unspecified)
VALUE MEASURED: inactive

Which outcome is listed for CC(=O)c1ccc(N=C2SCCCN2C(=O)C2CCCCC2)cc1 ?
inactive

Quick one: outcome for Cn1c(C2CCCCC2)nc2cc(N)ccc21 ?
inactive

Please give the measured outcome for this compound: CC(=O)N1CCN(C(=O)CSc2cc(C)c(Br)cc2C)CC1
inactive

----------
test: qHTS for Inhibitors of Cell Surface uPA Generation: Confirmatory Assay for Cherry-picked Compounds; conditions: cell surface uPA activity generation, qHTS confirmation; series mostly up to 115 µM
Inconclusive results are not listed. The source made the active and inactive calls. Calls come from the whole dose curve; as a rule, active = well fitted activation curve with a large enough effect; inconclusive = small, poorly fitted or top-dose-only effect; inactive = flat fitted curve, though single readings scatter.
Outcome (select one): label 1 (active), label 0 (inactive)

In this assay, the call recorded for COc1ccc(S(=O)(=O)N2CCN(Cc3ccccc3)CC2)c(C)c1 was what?
label 0

For this compound, state the assay outcome: COc1ccc(NC(=O)/C(N=Nc2cc(S(=O)(=O)Nc3ccc(OC)cc3)ccc2OC)=C(\C)O)cc1
label 0

Kindly provide the recorded test outcome for the following compound: Cc1ccc(Nc2cc(C)c3ccc(O)cc3n2)cc1C
label 1

Tell me the recorded outcome of this test for C/C(=N\NC(=O)c1cccc([N+](=O)[O-])c1)c1cccnc1 .
label 0

Tell me the assay call for Cc1ccc(Nc2nc(Cl)c(C=O)s2)cc1 please.
label 0

Assay result, entry COc1ccc(C(=O)NNC(=O)Cc2ccc(Cl)cc2)cc1 — outcome?
label 0

# lookup: test call for O=S(=O)(NCC(c1cccnc1)N1CCOCC1)c1ccccc1 (stereo not given)
label 0

Dear all, I need the recorded test outcome for Cc1nn(C)c(C)c1S(=O)(=O)N1CCC(C(=O)NC2CCCCCC2)CC1 , thank you.
label 0

What did the test return for Cc1cc(N)n(Cc2ccc(Cl)cc2)n1 ?
label 0

Please share the test call associated with CC(=O)NCCc1cnc[nH]1 .
label 0

Outcome logged for Cc1ccnc(NC(=O)CCNS(=O)(=O)c2ccc(C)c(C)c2)c1 in this assay:
label 0

Test call for this compound, please: CCc1nc(SCC(N)=O)c2c(=O)n(C)c(=O)n(C)c2n1
label 0

Check the results log: what was the call for CCC(C(=O)NCc1ccc(C)cc1)c1ccccc1 (stereo not given) ?
label 0

Assay result, entry Cc1ccc(NC(=O)CCCn2c(=S)[nH]c3ccsc3c2=O)cc1C — outcome?
label 0

Test call for this compound, please: Cc1ccc(NC(=O)c2ccc(=O)[nH]n2)cc1S(=O)(=O)Nc1ccccc1Cl
label 0

Check the results log: what was the call for O=C(Nc1c(C(=O)O)oc2ccc(Br)cc12)c1ccccc1 ?
label 0

Could you kindly confirm the outcome this assay logged for Cc1ccc(S(=O)(=O)N(C)c2ccc(OC(=O)c3ccc(=O)[nH]c3)cc2)cc1 ?
label 0

Which outcome was assigned to CCN(CC)S(=O)(=O)c1cc(NC(=O)COC(=O)C2CCC2)ccc1C in this test?
label 0

Record lookup: outcome of this test for COc1ccc(C2=C/C(=C\c3ccccc3OC(C)=O)C(=O)O2)cc1 ?
label 0

Status in this test for CCCNC(=O)C1CCC(CNS(=O)(=O)c2ccc3c(c2)CC(C)N3C(C)=O)CC1 (stereo not given) ?
label 0

Each compound tested received a call. Report the one for COCCOC(=O)C1=C(C)NC(=O)NC1c1cccc2ccccc12 (stereo not given) .
label 0

Which result was noted for this compound in the test: Cn1cc(SCC(=O)Nc2nccs2)c2ccccc21
label 0

How did this test come out for CCC1=NN(C(=O)C(=O)Nc2ccc(OC)cc2)C(O)(C(F)(F)F)C1 (stereo not given) ?
label 0

Hey, what did the test say about CC(C)Cn1cnc2c1c(=O)[nH]c(=O)n2Cc1ccccc1 ?
label 0

Per the records of this test, what outcome belongs to COc1ccc(C2=NS(=O)(=O)N(C)C(C(=O)NCc3ccccn3)=C2)cc1 ?
label 0
